# experimentalTarget: Neutrophil collagenase (Homo sapiens, UniProt P22894)
# Sequence (P22894 whole entry): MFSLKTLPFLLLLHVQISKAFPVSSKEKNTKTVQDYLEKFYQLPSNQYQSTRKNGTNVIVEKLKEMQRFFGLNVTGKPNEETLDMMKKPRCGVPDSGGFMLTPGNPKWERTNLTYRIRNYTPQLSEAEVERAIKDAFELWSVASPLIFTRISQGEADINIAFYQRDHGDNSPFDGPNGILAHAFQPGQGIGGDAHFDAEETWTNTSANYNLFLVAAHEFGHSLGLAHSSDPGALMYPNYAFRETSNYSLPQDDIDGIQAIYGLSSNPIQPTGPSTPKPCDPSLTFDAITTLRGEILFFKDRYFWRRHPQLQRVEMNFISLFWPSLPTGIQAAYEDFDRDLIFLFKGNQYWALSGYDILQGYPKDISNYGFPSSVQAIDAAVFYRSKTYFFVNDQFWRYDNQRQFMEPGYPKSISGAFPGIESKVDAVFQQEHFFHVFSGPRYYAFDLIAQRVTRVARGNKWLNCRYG
# assayComment: Inhibition of MMP-8
Entries and their log10 of Ki values follow.
Hey, these are logged values: log10 of Ki, µM being the unit before logging.

COc1cc(C)c(S(=O)(=O)N(Cc2ccc3c(c2)OCO3)[C@H](CCC(=O)N2CCN(c3ccccc3)CC2)C(=O)NO)c(C)c1C	1.11

Data request: What measured log10 of Ki goes with CCOC(=O)N1CCN(C(=O)CC[C@H](C(=O)NO)N(Cc2ccc3c(c2)OCO3)S(=O)(=O)c2c(C)cc(OC)c(C)c2C)CC1 ?
Data returned: 1.48

Data request: Requested field: log10 of Ki. Item: COc1ccc(S(=O)(=O)N(Cc2ccc3c(c2)OCO3)[C@H](CCC(=O)N2CCN(C(C)=O)CC2)C(=O)NO)cc1
Data returned: -2.05

Data request: State the recorded log10 of Ki for this entry: COc1cc(C)c(S(=O)(=O)N(Cc2ccc3c(c2)OCO3)[C@H](CCC(=O)N2CCN(C(C)=O)CC2)C(=O)NO)c(C)c1C
Data returned: 0.85

Data request: If you can, please state the reported log10 of Ki value of CCOC(=O)N1CCN(C(=O)CC[C@H](C(=O)NO)N(Cc2ccc3c(c2)OCO3)S(=O)(=O)c2ccc(OC)cc2)CC1 .
Data returned: -2.22

Data request: For COc1cc(C)c(S(=O)(=O)N(Cc2ccc3c(c2)OCO3)[C@H](CCC(=O)N2CCN(C(=O)OCc3ccccc3)CC2)C(=O)NO)c(C)c1C , what is its reported log10 of Ki?
Data returned: 1.54
